experiment: CCTE_Shafer_MEA_dev_per_network_spike_spike_percent: CCTE's Neural Network Formation Assay for Percent of Spikes in a Network Spike, Shafer Lab (AID 2284054)
The source made the active and inactive calls. The calls were made as follows: active = hit-call score of the fitted dose curve at least 0.9, where 1 is the maximum; inactive = score below 0.9.
Measure Name: outcome

[[record]]
smi = "O=C(O)C(F)(F)C(F)(F)C(F)(F)C(F)(F)C(F)(F)C(F)(F)C(F)(F)C(F)(F)C(F)(F)C(F)F"
value_reported = "inactive"

[[record]]
smi = "O=C(O)C(F)(F)C(F)(F)C(F)F"
value_reported = "inactive"

[[record]]
smi = "O=C(O)C(F)(F)C(F)(F)C(F)(F)F"
value_reported = "inactive"


* * *

system: DIO3 (gene 1735); experiment: CCTE_GLTED_hDIO3: CCTE's human Deiodinase 3 (DIO3) Inhibition Assay, Great Lakes Toxicology and Ecology Division (GLTED) Lab (AID 2284055)
Activity calls are given as the source filed them. The calls were made as follows: active = hit-call score of the fitted dose curve at least 0.9, where 1 is the maximum; inconclusive = response in the unintended direction; inactive = score below 0.9.
Outcomes: active, inactive

[[record]]
compound = "O=C(O)C(F)(F)C(F)(F)C(F)(F)C(F)(F)C(F)(F)C(F)(F)C(F)(F)C(F)(F)C(F)(F)C(F)(F)C(F)(F)C(F)(F)F"
tested_target = "DIO3 (gene 1735)"
group = "active"

[[record]]
compound = "O=C(O)C(F)(F)C(F)(F)C(F)(F)C(F)(F)C(F)(F)C(F)(F)C(F)(F)C(F)(F)C(F)(F)C(F)F"
tested_target = "DIO3 (gene 1735)"
group = "active"

[[record]]
compound = "c1ccc(B(c2ccccc2)c2ccccc2)cc1"
tested_target = "DIO3 (gene 1735)"
group = "active"

[[record]]
compound = "CCN(Cc1cccc(S(=O)(=O)O)c1)c1ccc(C(=C2C=CC(=[N+](CC)Cc3cccc(S(=O)(=O)O)c3)C=C2)c2ccc(O)cc2S(=O)(=O)[O-])cc1"
tested_target = "DIO3 (gene 1735)"
group = "active"

[[record]]
compound = "CC(Cc1ccc(O)c(O)c1)C(C)Cc1ccc(O)c(O)c1 (stereo unspecified)"
tested_target = "DIO3 (gene 1735)"
group = "active"

[[record]]
compound = "C=C(C)C(=O)OCC(F)(F)C(F)(F)C(F)(F)F"
tested_target = "DIO3 (gene 1735)"
group = "inactive"


* * *

read-out: Urokinase-type plasminogen activator receptor (uPAR), PLAUR (gene 5329); assay: BSK_CASM3C_uPAR: BioMAP Diversity Plus: CASM3C Assay for Urokinase-type plasminogen activator receptor (uPAR) Biomarker Activity (AID 2283054); settings: primary human coronary artery smooth muscle cells; actives raise or lower the signal;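 also: cell-surface uPAR protein level quantified by ELISA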
Active and inactive are the calls of the source. The calls were made as follows: active = hit-call score of the fitted dose curve at least 0.9, where 1 is the maximum; inactive = score below 0.9.
Classes used: y = active, n = inactive

[[record]]
compound = "CCCCCCCCCCCCCCCC[N+](C)(C)Cc1ccccc1"
group = "y"

[[record]]
compound = "CC(C)(C)C(=O)CC(=O)C(F)(F)C(F)(F)C(F)(F)F"
group = "n"

[[record]]
compound = "CCN(CC)c1ccc2c(C)cc(=O)oc2c1"
group = "n"

[[record]]
compound = "O=C(O)C=C(C(F)(F)F)C(F)(F)F"
group = "n"

[[record]]
compound = "O=C(O)C(F)(F)C(F)(F)C(F)(F)C(F)(F)C(F)(F)C(F)(F)C(F)(F)C(F)(F)C(F)(F)C(F)F"
group = "n"

[[record]]
compound = "FC(F)(F)C(F)(F)CNCC(F)(F)C(F)(F)F"
group = "n"

[[record]]
compound = "FC1CC(F)(F)C(F)(F)C1(F)F (stereo not given)"
group = "n"

[[record]]
compound = "CC(CCl)OP(=O)(OC(C)CCl)OC(C)CCl (stereo not given)"
group = "n"

[[record]]
compound = "O=C(O)C(F)(F)C(F)(F)OC(F)(F)F"
group = "n"

[[record]]
compound = "C=C(C)C(=O)OCC(F)(F)C(F)(F)C(F)(F)F"
group = "n"

